Target: human adenosine A2A receptor (Homo sapiens)
Construct: expressed in transfected cells; host or cells: CHO cells, Semliki Forest virus expression system; membrane preparation
Assay: Human adenosine A2A receptor [3H]-SCH-58261 binding assay
Conditions: affinity to human adenosine A2A receptor; read-out: Ki HA2A
Experimental: Human Adenosine A2A Receptor The human adenosine A2A receptor was recombinantly expressed in chinese hamster ovary (CHO) cells using the semliki forest virus expression system. […] Assay plates were incubated for 1 hour at room temperature before centrifugation and then bound ligand determined using a Packard Topcount scintillation counter. IC50 values were calculated using a non-linear curve fitting program and Ki values calculated using the Cheng-Prussoff equation.
reported metric: Ki (µM)
Give bare numbers, in µM.

CN(C(=O)c1cc(N)n2nc(-c3ccccc3)nc2c1)C1CCCCC1 [Example 148]
0.148
Nc1cc(C(=O)NCc2ccc(F)cc2)cc2nc(-c3nccs3)nn12 [Example 206]
0.126
CC1CCCN(C(=O)c2cc(N)n3nc(-c4nccs4)nc3c2)C1 (stereo not drawn) [Example 316]
0.0723
Nc1cc(C(=O)N2CCCC2)cc2nc(-c3ccoc3)nn12 [Example 99]
0.233
Nc1cc(C(=O)N2CCCCC2c2cccnc2)cc2nc(-c3ccc(Br)o3)nn12 (stereo not drawn) [Example 354]
0.0029

Give Ki for each of the items listed below.
1. CC1CC(C)CN(C(=O)c2cc(N)n3nc(-c4ccc(Br)o4)nc3c2)C1 (stereo not drawn) [Example 341]
2. CCCN(C)C(=O)c1cc(N)n2nc(-c3ccc(Cl)o3)nc2c1 [Example 252]
3. CC(C)N(Cc1ccccc1)C(=O)c1cc(N)n2nc(-c3cc(Br)co3)nc2c1 [Example 173]

0.0017
0.0155
0.0444

Give Ki for each of the items listed below.
1. CN(CC1CC1)C(=O)c1cc(N)n2nc(-c3ccc(Cl)o3)nc2c1 [Example 247]
2. CCN(C)C(=O)c1cc(N)n2nc(-c3ccc(Br)o3)nc2c1 [Example 264]
3. COc1cc(CNC(=O)c2cc(N)n3nc(-c4ccc(Br)o4)nc3c2)cc(OC)c1OC [Example 133]
4. Cn1cccc1-c1nc2cc(C(=O)NC3CCCCC3)cc(N)n2n1 [Example 179]

1. 0.0092
2. 0.0065
3. 0.146
4. 0.144

Give Ki for each of the items listed below.
1. CCNC(=O)c1cc(N)n2nc(-c3nccs3)nc2c1 [Example 328]
2. Cc1ccsc1-c1nc2cc(C(=O)N3CCCC3)cc(N)n2n1 [Example 188]
3. Cn1cccc1-c1nc2cc(C(=O)NCc3ccccc3)cc(N)n2n1 [Example 180]

0.0317
0.226
0.112

---

Provide the recorded Ki for the entries that follow.
Target: human adenosine A2A receptor (Homo sapiens)
Construct: expressed in transfected cells; host or cells: CHO cells, Semliki Forest virus expression system; membrane preparation
Assay: Human adenosine A2A receptor [3H]-SCH-58261 binding assay
Details: recombinant human A2A in CHO cell membranes, [3H]-SCH-58261, Cheng-Prussoff; read-out: Ki hA2A
Please report the result as a number followed by the unit.

# annotated cases, reported Ki shown
Nc1cc(C(=O)N2CCC3CCCCC3C2)cc2nc(-c3nccs3)nn12 (stereo not shown)
0.0769 µM
CCN(Cc1ccncc1)C(=O)c1cc(N)n2nc(-c3ccccn3)nc2c1
0.0331 µM
Nc1cc(C(=O)N2CCCCCC2)cc2nc(-c3ccccn3)nn12
0.0169 µM

Please turn your attention to the following entry.
Data request, read-out Ki, for CCCN(CCC)C(=O)c1cc(N)n2nc(-c3ccccn3)nc2c1 0.103 µM

---

Biological target: HA1 adenosine receptor (Homo sapiens)
Assay: Human adenosine A1 receptor affinity (Ki hA1)
Assay type: binding
Conditions: affinity to human adenosine A1 receptor
Provide the recorded Ki for the entries that follow.
Answers are plain numbers, in µM.

# annotated cases, reported Ki shown
COc1ccccc1CNC(=O)c1cc(N)n2nc(-c3cccnc3)nc2c1
1.26
CCN(Cc1ccccc1F)C(=O)c1cc(N)n2nc(-c3ccc[nH]3)nc2c1
1.4
CCN(CC)C(=O)c1cc(N)n2nc(-c3sccc3C)nc2c1
1.42

Please turn your attention to the following entry.
Data request, read-out Ki, for CC(C)N(Cc1ccccc1)C(=O)c1cc(N)n2nc(-c3cccnc3)nc2c1 0.819

---

Target: HA1 adenosine receptor (Homo sapiens)
Test: Human adenosine A1 receptor affinity (Ki hA1)
Assay type: binding
pKi: −log10 of the molar value.
Threshold check on pKi: at or above 6 gives fulfilled, strictly below gives not fulfilled.

CCN(CCOC)C(=O)c1cc(N)n2nc(-c3ccc(Br)o3)nc2c1 [Example 396]
fulfilled

Turning now to a further record.
Is it the case that Nc1cc(C(=O)N2CCC3CCCCC3C2)cc2nc(-c3nccs3)nn12 (centres unmarked) [Example 380] has pKi reaching or exceeding 6? not fulfilled

---

Target: human adenosine A2A receptor (Homo sapiens, UniProt P29274)
Construct: expressed in transfected cells; host or cells: CHO cells, Semliki Forest virus expression system; membrane preparation
Sequence (P29274 whole entry): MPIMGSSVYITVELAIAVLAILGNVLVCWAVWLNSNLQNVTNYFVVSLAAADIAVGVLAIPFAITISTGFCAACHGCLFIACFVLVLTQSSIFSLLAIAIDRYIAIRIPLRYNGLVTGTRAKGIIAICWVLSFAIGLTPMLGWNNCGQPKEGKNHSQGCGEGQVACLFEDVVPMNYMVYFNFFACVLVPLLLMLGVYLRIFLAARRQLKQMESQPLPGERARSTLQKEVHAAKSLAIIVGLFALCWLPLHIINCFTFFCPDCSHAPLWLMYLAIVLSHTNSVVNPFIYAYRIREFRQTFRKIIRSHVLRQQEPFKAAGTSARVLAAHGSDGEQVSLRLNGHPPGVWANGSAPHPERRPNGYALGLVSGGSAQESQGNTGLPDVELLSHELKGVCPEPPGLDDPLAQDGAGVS
Experiment: Human adenosine A2A receptor [3H]-SCH-58261 binding assay
Settings: affinity to human adenosine A2A receptor; read-out: Ki HA2A
reported metric: pKi
Give bare numbers, as −log10 of the molar value.

CC(C)N(Cc1ccccc1)C(=O)c1cc(N)n2nc(-c3ccco3)nc2c1
7.92
Nc1cc(C(=O)N(CC(F)(F)F)CC(F)(F)F)cc2nc(-c3ccc(Br)o3)nn12
7.59
COc1ccc(-c2nc3cc(C(=O)NC(C)c4ccccc4)cc(N)n3n2)s1 (centres unmarked)
6.41
CC1CN(C(=O)c2cc(N)n3nc(-c4ccc(Br)o4)nc3c2)CC(C)O1 (centres unmarked)
8.03

Give pKi for each of the items listed below.
1. CC1CCC(C)N1C(=O)c1cc(N)n2nc(-c3ccc(Cl)o3)nc2c1 (centres unmarked)
2. Nc1cc(C(=O)N2CCCCC2)cc2nc(-c3ccc(Cl)o3)nn12
3. COc1ccc(-c2nc3cc(C(=O)NC4CCCCCC4)cc(N)n3n2)s1
4. Nc1cc(C(=O)N(CCc2ccccc2)Cc2ccccc2)cc2nc(-c3ccc[nH]3)nn12
5. Nc1cc(C(=O)NCc2ccccc2Br)cc2nc(-c3ccoc3)nn12
6. CN(C(=O)c1cc(N)n2nc(-c3ccc(Br)o3)nc2c1)C1CCCCC1
7. CC1C=CC(C)N1C(=O)c1cc(N)n2nc(-c3ccc(Br)o3)nc2c1 (centres unmarked)

[8.14, 8.04, 6.44, 6.66, 7.74, 8.59, 8.41]

Give pKi for each of the items listed below.
1. CCN(C)C(=O)c1cc(N)n2nc(-c3ccc(Cl)o3)nc2c1
2. C#CCN(C)C(=O)c1cc(N)n2nc(-c3nccs3)nc2c1
3. Nc1cc(C(=O)NCc2ccc(Cl)cc2)cc2nc(-c3ccoc3)nn12
4. Nc1cc(C(=O)N2CCCCC2)cc2nc(-c3cccs3)nn12
5. CN(C)CCN(C)C(=O)c1cc(N)n2nc(-c3ccc(Br)o3)nc2c1
6. COc1ccc(CNC(=O)c2cc(N)n3nc(-c4ccc(Br)o4)nc3c2)cc1

[7.72, 7.07, 6.48, 7.00, 6.91, 6.44]

Give pKi for each of the items listed below.
1. Nc1cc(C(=O)NCc2ccccc2Cl)cc2nc(-c3ccc[nH]3)nn12
2. Nc1cc(C(=O)N2CCOCC2)cc2nc(-c3ccc(Br)o3)nn12
3. CCN(CC)C(=O)c1cc(N)n2nc(-c3ccccc3)nc2c1
4. CCNC(=O)c1cc(N)n2nc(-c3ccc(Br)o3)nc2c1
5. COc1ccc(-c2nc3cc(C(=O)NCc4ccccc4Br)cc(N)n3n2)s1
6. COc1ccc(-c2nc3cc(C(=O)NCCc4ccccc4OC)cc(N)n3n2)s1
7. Cc1ccsc1-c1nc2cc(C(=O)NC(C)c3ccccc3)cc(N)n2n1 (centres unmarked)
8. Nc1cc(C(=O)N2CCCCC2)cc2nc(-c3ccoc3)nn12

6.89
7.47
6.88
7.60
6.97
6.50
6.44
6.52

Data request, read-out pKi, for COc1ccc(-c2nc3cc(C(=O)NC4CC4)cc(N)n3n2)s1 6.58

---

Target: HA1 adenosine receptor (Homo sapiens, UniProt P30542)
Sequence (P30542 whole entry): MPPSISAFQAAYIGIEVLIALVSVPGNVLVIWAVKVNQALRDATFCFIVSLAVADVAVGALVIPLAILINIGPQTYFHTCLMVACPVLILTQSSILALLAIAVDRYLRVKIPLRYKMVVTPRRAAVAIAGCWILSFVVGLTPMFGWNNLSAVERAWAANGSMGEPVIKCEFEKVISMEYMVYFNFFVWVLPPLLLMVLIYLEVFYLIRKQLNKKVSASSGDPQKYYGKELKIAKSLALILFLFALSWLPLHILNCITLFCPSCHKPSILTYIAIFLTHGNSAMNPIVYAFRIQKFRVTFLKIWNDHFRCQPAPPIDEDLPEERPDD
Assay: Human adenosine A1 receptor affinity (Ki hA1)
Assay type: binding
Conditions: affinity to human adenosine A1 receptor
reported metric: Ki
Please report the result as a number followed by the unit.

# annotated cases, reported Ki shown
CN(CCc1ccccn1)C(=O)c1cc(N)n2nc(-c3ccc(Br)o3)nc2c1
463 nM
Nc1cc(C(=O)N2CC=C(c3ccccc3)CC2)cc2nc(-c3ccc(Br)o3)nn12
227 nM
Nc1cc(C(=O)N2CCC3CCCCC3C2)cc2nc(-c3ccc(Br)o3)nn12 (stereo not shown)
167 nM
Cc1ccc(-c2nc3cc(C(=O)N(C)C4CCCCC4)cc(N)n3n2)s1
307 nM
CCN(C(=O)c1cc(N)n2nc(-c3sccc3C)nc2c1)C(C)C
1090 nM
Nc1cc(C(=O)NC2CCCCC2)cc2nc(-c3ccccc3)nn12
453 nM

Please turn your attention to the following entry.
Data request, read-out Ki, for COc1ccccc1CCNC(=O)c1cc(N)n2nc(-c3ccccn3)nc2c1 128 nM

Values from patent US6506772B1
